Attribution: ChEMBL document CHEMBL6083244

- protocol details: Antioxidant activity assessed as oxygen radical scavenging by measuring trolox equivalents
- Format: functional
Criterion: Activity meeting or surpassing 1. Met: label 1. Not met: label 0.

The following compounds have reported results that may help.
>  <input smiles>
Cc1cc(O)n(-c2ccc(C(F)(F)F)cn2)n1

>  <label>
label 1

$$$$
>  <input smiles>
Oc1cc(C(F)(F)F)nn1-c1ncccn1

>  <label>
label 1

$$$$
>  <input smiles>
Cc1cc(O)n(-c2ncccc2Cl)n1

>  <label>
label 0

$$$$

**Q:** Hi, just wondering whether `Cc1cc(O)n(-c2ccc(Cl)cn2)n1` shows Activity of 1 or higher.
**A:** label 1

**Q:** Hi, just wondering whether `Cc1cc(O)n(-c2cccc(CO)n2)n1` shows Activity of 1 or higher.
**A:** label 1

**Q:** Hi, just wondering whether `Cc1cc(O)n(-c2ccc(F)cn2)n1` shows Activity of 1 or higher.
**A:** label 1

====

Please respond with reported IC50 for every item in the list.
- protocol details: Antioxidant activity assessed as ABTS radical scavenging activity
- Format: functional
Answers are plain numbers, in µM.

// for each compound in input: emit IC50
1. Cc1nc(C)c(-n2nc(C(F)(F)F)cc2O)nc1C
2. Oc1cc(C(F)(F)F)nn1-c1ncc(F)cn1

**A:**
19.7
16.3

// for each compound in input: emit IC50
1. Oc1cc(C(F)(F)F)nn1-c1ccc(C(F)(F)F)cn1
2. Cc1cc(O)n(-c2ccc(F)cn2)n1
3. Cc1cc(O)n(-c2cccc(CO)n2)n1
4. Cc1cc(O)n(-c2ncccc2C)n1
5. CC1=NN(c2ccccc2)C(=O)C1 [EDARAVONE]
6. Cc1cc(O)n(-c2ccc(C(F)(F)F)cn2)n1
7. Cc1cc(O)n(-c2ccc(CO)cn2)n1
8. CC1=NN(c2ncc(Cl)cc2Cl)C(=O)C1

**A:**
[14.8, 13.8, 18.9, 13.7, 15.8, 16.1, 20.5, 19.4]

// for each compound in input: emit IC50
1. Oc1cc(C(F)(F)F)nn1-c1ncccn1
2. Cc1cc(O)n(-c2ccccn2)n1
3. Oc1cc(C(F)(F)F)nn1-c1ncccc1C(F)(F)F
4. Oc1cc(C(F)(F)F)nn1-c1ncc(Cl)cc1Cl

**A:**
13.9
12.3
35.5
20.4

// for each compound in input: emit IC50
1. OCc1ccc(-n2nc(C(F)(F)F)cc2O)nc1
2. Oc1cc(C(F)(F)F)nn1-c1ncccc1Cl

**A:**
[28, 19.5]

====

- protocol details: Antioxidant activity assessed as DPPH radical scavenging activity at 8 uM relative to control
- Assay type: functional
Please respond with reported Activity for every item in the list.
Answer with the value and then the unit.

Illustrative cases are given below, each with its answer.
>  <input smiles>
Cc1cc(O)n(-c2ccc(Cl)cn2)n1

>  <Activity>
53%

$$$$
>  <input smiles>
Oc1cc(C(F)(F)F)nn1-c1ccc(C(F)(F)F)cn1

>  <Activity>
28.4%

$$$$
>  <input smiles>
Cc1cc(O)n(-c2ncccc2C)n1

>  <Activity>
49.9%

$$$$
>  <input smiles>
Cc1cc(O)n(-c2ncccc2Cl)n1

>  <Activity>
2.36%

$$$$
>  <input smiles>
Cc1cc(O)n(-c2ccc(CO)cn2)n1

>  <Activity>
34.7%

$$$$
>  <input smiles>
Cc1cc(C)nc(-n2nc(C)cc2O)n1

>  <Activity>
51.6%

$$$$
>  <input smiles>
Oc1cc(C(F)(F)F)nn1-c1ncccc1C(F)(F)F

>  <Activity>
34.7%

$$$$

Then there is this molecule:
// sample `Oc1cc(C(F)(F)F)nn1-c1ncc(Cl)cc1Cl` , its Activity was 29.4%
